Assayed Target: CRF1R (Homo sapiens, UniProt P34998)
Experiment Notes: CRF1R agonist activity (EC50 and Emax), called comparative CRF binding
Assay type: cell-based
Condition Notes: CRF1R; read-out: CRF1R EC50
Ends that are not written are not given here.
Quick list: EC50 per entry.

>  <Substance>
SQEPPISLDLPTHLLREVLEMTKADQLAQQAHSNRKLLDIA-NH2 [compound 99]

>  <Result>
≥ 100 nM

$$$$
>  <Substance>
SQEPPISLDLTFGLLREVLEMTKADQLAQQAHSNRKLLDIA-NH2 [compound 88]

>  <Result>
≥ 100 nM

$$$$
>  <Substance>
SQEPPISLDLPTQLLREVLEMTKADQLAQQAHSNRKLLDIA-NH2 [compound 105]

>  <Result>
≥ 100 nM

$$$$
>  <Substance>
SQEPPISLDLPLQLLREVLEMTKADQLAQQAHSNRKLLDIA-NH2 [compound 95]

>  <Result>
≥ 100 nM

$$$$
>  <Substance>
SQEPPISLDLTIGLLREVLEMTKADQLAQQAHSNRKLLDIA-NH2 [compound 86]

>  <Result>
≥ 100 nM

$$$$
>  <Substance>
SQEPPISLDLPIHLLREVLEMTKADQLAQQAHSNRKLLDIA-NH2 [compound 94]

>  <Result>
≥ 100 nM

$$$$
>  <Substance>
NDDPPISIDLPFQLLRNMIEMARIENEREQAGLNAKYLAEV-NH2 [compound 258]

>  <Result>
≥ 1000 nM

$$$$
>  <Substance>
NDDPPISIDLPLILLRNMIEMARIENEREQAGLNAKYLAEV-NH2 [compound 269]

>  <Result>
≥ 1000 nM

$$$$
>  <Substance>
SQEPPISLDLPFGLLREVLEMTKADQLAQQAHSNRKLLDIA-NH2 [compound 103]

>  <Result>
≥ 100 nM

$$$$
>  <Substance>
SQEPPISLDLPFQLLREVLEMTKADQLAQQAHSNRKLLDIA-NH2 [compound 91]

>  <Result>
≥ 100 nM

$$$$

For the substance SQEPPISLDLPTGLLREVLEMTKADQLAQQAHSNRKLLDIA-NH2 [compound 98] , what EC50 is on record?
≥ 100 nM

Same again, this time with SQEPPISLDLPLGLLREVLEMTKADQLAQQAHSNRKLLDIA-NH2 [compound 90]
≥ 100 nM

Same again, this time with NDDPPISIDLPYYLLRNMIEMARIENEREQAGLNAKYLAEV-NH2 [compound 267]
≥ 1000 nM

---

Assayed Target: CRF2R (Homo sapiens, UniProt Q13324)
Sequence (Q13324 1-411): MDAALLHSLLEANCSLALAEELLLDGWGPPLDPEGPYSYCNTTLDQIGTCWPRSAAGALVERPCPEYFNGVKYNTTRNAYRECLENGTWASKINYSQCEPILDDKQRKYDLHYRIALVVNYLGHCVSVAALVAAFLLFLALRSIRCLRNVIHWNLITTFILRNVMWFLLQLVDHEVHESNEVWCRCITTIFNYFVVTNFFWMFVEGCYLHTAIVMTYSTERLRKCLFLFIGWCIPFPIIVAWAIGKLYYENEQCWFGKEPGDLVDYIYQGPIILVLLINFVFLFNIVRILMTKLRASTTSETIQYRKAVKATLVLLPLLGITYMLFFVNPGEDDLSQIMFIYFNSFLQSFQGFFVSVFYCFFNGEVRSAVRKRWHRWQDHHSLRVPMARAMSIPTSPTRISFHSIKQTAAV
Experiment Notes: CRF2R agonist activity (EC50 and Emax), called comparative CRF binding
Assay type: cell-based
Condition Notes: CRF2R; read-out: CRF2R EC50
Procedure: The pharmacological activity and selectivity of the peptides of present invention can be determined using published test procedures. See, e.g, U.S. patent application Ser. No. 09/799,978. […] In one example, cAMP induction is measured with the use of DNA constructs containing the cAMP responsive element linked to any of a variety of reporter genes can be introduced into cells expressing CRFRs. […]
pEC50: −log10 of the molar value. Ends that are not written are not given here.
Property Measured: pEC50

Example entries begin here.
>  <Substance>
SQEPPISLDLPFYLLREVLEMTKADQLAQQAHSNRKLLDIA-NH2 [compound 96]

>  <pEC50>
≤ 7.00

$$$$
>  <Substance>
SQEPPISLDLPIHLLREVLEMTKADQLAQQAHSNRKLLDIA-NH2 [compound 94]

>  <pEC50>
≤ 7.00

$$$$
>  <Substance>
SQEPPISLDLPLHLLREVLEMTKADQLAQQAHSNRKLLDIA-NH2 [compound 102]

>  <pEC50>
≤ 7.00

$$$$
>  <Substance>
SQEPPISLDLPIQLLREVLEMTKADQLAQQAHSNRKLLDIA-NH2 [compound 100]

>  <pEC50>
≤ 7.00

$$$$
>  <Substance>
NDDPPISIDLPLQLLRNMIEMARIENEREQAGLNAKYLAEV-NH2 [compound 270]

>  <pEC50>
≤ 7.00

$$$$

Lab note: next substance to report on.
For the substance NDDPPISIDLPLLLLRNMIEMARIENEREQAGLNAKYLAEV-NH2 [compound 268] , what pEC50 is on record?
≤ 7.00

---

Assayed Target: CRF2R (Homo sapiens, UniProt Q13324)
Experiment Notes: CRF2R agonist activity (EC50 and Emax), called comparative CRF binding
Format: cell-based
Condition Notes: CRF2R; read-out: CRF2R EC50
Experimental: The pharmacological activity and selectivity of the peptides of present invention can be determined using published test procedures. See, e.g, U.S. patent application Ser. No. 09/799,978. […] In one example, cAMP induction is measured with the use of DNA constructs containing the cAMP responsive element linked to any of a variety of reporter genes can be introduced into cells expressing CRFRs. […]
Ends that are not written are not given here.
Property Measured: EC50

Example entries begin here.
>  <Substance>
SQEPPISLDLTIHLLREVLEMTKADQLAQQAHSNRKLLDIA-NH2 [compound 87]

>  <Property Measured>
EC50

>  <Result>
≥ 100 nM

$$$$
>  <Substance>
SQEPPISLDLPLYLLREVLEMTKADQLAQQAHSNRKLLDIA-NH2 [compound 101]

>  <Property Measured>
EC50

>  <Result>
≥ 100 nM

$$$$
>  <Substance>
NDDPPISIDLPTYLLRNMIEMARIENEREQAGLNAKYLAEV-NH2 [compound 266]

>  <Property Measured>
EC50

>  <Result>
≥ 100 nM

$$$$
>  <Substance>
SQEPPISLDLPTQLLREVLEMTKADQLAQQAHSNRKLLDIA-NH2 [compound 105]

>  <Property Measured>
EC50

>  <Result>
≥ 100 nM

$$$$
>  <Substance>
NDDPPISIDLPQYLLRNMIEMARIENEREQAGLNAKYLAEV-NH2 [compound 265]

>  <Property Measured>
EC50

>  <Result>
≥ 100 nM

$$$$

For the substance SQEPPISLDLPTELLREVLEMTKADQLAQQAHSNRKIIDIA-NH2 [compound 92] , what EC50 is on record?
≥ 100 nM

---

Assayed Target: CRF1R (Homo sapiens, UniProt P34998)
Sequence (P34998 24-415): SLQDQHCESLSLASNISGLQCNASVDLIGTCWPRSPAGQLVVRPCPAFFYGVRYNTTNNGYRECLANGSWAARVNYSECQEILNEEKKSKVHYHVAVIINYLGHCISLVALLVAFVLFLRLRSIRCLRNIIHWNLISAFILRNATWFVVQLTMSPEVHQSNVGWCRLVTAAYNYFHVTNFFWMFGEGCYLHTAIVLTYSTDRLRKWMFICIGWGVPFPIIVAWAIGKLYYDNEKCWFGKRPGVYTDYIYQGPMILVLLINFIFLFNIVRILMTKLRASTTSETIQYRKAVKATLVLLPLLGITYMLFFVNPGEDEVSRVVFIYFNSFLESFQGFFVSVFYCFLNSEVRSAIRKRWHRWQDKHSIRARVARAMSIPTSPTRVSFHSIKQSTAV
Experiment Notes: CRF1R agonist activity (EC50 and Emax), called comparative CRF binding
Format: cell-based
Condition Notes: CRF1R; read-out: CRF1R EC50
Ends that are not written are not given here.
Quick list: EC50 per entry.

Example entries begin here.
>  <Substance>
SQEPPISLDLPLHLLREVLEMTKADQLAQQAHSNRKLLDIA-NH2 [compound 102]

>  <EC50>
≥ 100 nM

$$$$
>  <Substance>
SQEPPISLDLPIGLLREVLEMTKADQLAQQAHSNRKLLDIA-NH2 [compound 93]

>  <EC50>
≥ 100 nM

$$$$
>  <Substance>
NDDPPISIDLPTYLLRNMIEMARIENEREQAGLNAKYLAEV-NH2 [compound 266]

>  <EC50>
≥ 1000 nM

$$$$
>  <Substance>
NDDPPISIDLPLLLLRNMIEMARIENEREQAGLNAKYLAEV-NH2 [compound 268]

>  <EC50>
≥ 1000 nM

$$$$

Hello, I am looking for reported EC50 with CRF1R (Homo sapiens, UniProt P34998) for SQEPPISLDLPFELLREVLEMTKADQLAQQAHSNRKLLDIA-NH2 [compound 97] . Could you help?
≥ 100 nM
